# measured target: Protein farnesyltransferase (Homo sapiens) (UniProt P49354+P49356)
# assay remarks: Relative Vmax for Farnesyltransferase at 10 uM
# Type: protein-complex assay
quantity: Krel

{"columns": ["compound", "measured target", "measured number"],
 "data": [
  ["C=CC/C(=C\\COP(=O)(O)OP(=O)(O)O)CC/C=C(\\C)CCC=C(C)C", "Protein farnesyltransferase (Homo sapiens) (UniProt P49354+P49356)", 0.053]
]}

[a] C=C(C)/C(=C\COP(=O)(O)OP(=O)(O)O)CC/C=C(\C)CCC=C(C)C
[b] CC(C)=CCC/C(C)=C/CC/C(=C/COP(=O)(O)OP(=O)(O)O)CC(C)(C)C
[c] CC(C)=CCC/C(C)=C/CC/C(=C/COP(=O)(O)OP(=O)(O)O)c1ccc(F)cc1
q: Arrange the 3 compounds by rising Krel, starting with the smallest. Labels, ranked as asked.
a: a, c, b
(a: 0, c: 0.002, b: 0.042)

* * *

# measured target: Protein farnesyltransferase (Homo sapiens) (UniProt P49354+P49356)
# assay remarks: Relative Vmax for Farnesyltransferase at 10 uM
# Assay type: protein-complex assay
quantity: Krel

{"columns": ["molecule", "measured number"],
 "data": [
  ["CCC/C(=C\\COP(=O)(O)OP(=O)(O)O)CC/C=C(\\C)CCC=C(C)C", 0.078],
  ["CC(C)=CCC/C(C)=C/CC/C(=C/COP(=O)(O)OP(=O)(O)O)CC(C)C", 0]
]}

[a] CCC(C)/C(=C\COP(=O)(O)OP(=O)(O)O)CC/C=C(\C)CCC=C(C)C (stereo unspecified)
[b] CC(C)=CCC/C(C)=C/CC/C(=C/COP(=O)(O)OP(=O)(O)O)C(C)C
[c] C=C/C(=C\COP(=O)(O)OP(=O)(O)O)CC/C=C(\C)CCC=C(C)C
[d] CC(C)=CCC/C(C)=C/CC/C(=C/COP(=O)(O)OP(=O)(O)O)C1CCCC1
q: Sort these molecules on Krel so the largest reading comes first. Labels, ranked as asked.
a: c, d, b, a

Value source: ChEMBL document CHEMBL1133135
